- Tested on: HT29 colon
- Method summary: NCI-60 one-dose screen, 48 h
- Applied conditions: 10 µM unless noted
The panel holds about 83,000 compounds, 20% with a hit somewhere; the sample as a whole holds those more often. Activity calls are given as the source filed them. The calls were made as follows: active = growth percent below 10; inactive = the rest.
Write down the outcome that applies. Available outcomes: label 1 (active), label 0 (inactive)

Illustrative cases are given below, each with its answer.
Compound	Class assignment
COc1ccc(/C(=C\c2ccc3c(c2)OCO3)C(=O)Nc2nc3ccccc3s2)cc1	label 0
CCCC(CCC)NCC(O)c1cc(-c2ccc(C(F)(F)F)cc2)nc(C(F)(F)F)c1 (configuration not stated)	label 1
Fc1cc(-c2nnc3sc(-c4ccc(Cl)cc4)nn23)c(Cl)cc1Cl	label 0
COc1ccc2[nH]cc(C(c3ccc(Cl)cc3)N3CCCC3)c2c1 (configuration not stated)	label 0
Cc1cc2nc3c(=O)[nH]c(=O)nc-3n(CC=O)c2cc1C	label 0

Query: Assay outcome for COc1ccc(/C=C2\N=C(c3cccnc3)N(c3ccccc3)NC2=O)cc1 : what was it?
Response: label 0

Query: Check COc1ccc(-c2nsc3c2NC(=O)CC3c2cccc(F)c2)cc1 (configuration not stated) too.
Response: label 0

Query: Check CCN(CC)CCCC(C)Nc1cnc(C(=O)Nc2ccc(Cl)c3cccnc23)cn1 (configuration not stated) too.
Response: label 1

Query: Check CC(CN1CCN(C)CC1)CN1c2ccccc2Sc2ccc(C(F)(F)F)cc21 (configuration not stated) too.
Response: label 1

Query: Check O=C(/C=C/c1cc([N+](=O)[O-])ccc1Cl)c1ccccc1 too.
Response: label 0
